Ref: patent US20120135923A1

target: T1, human melanocortin receptor subtype 1 (hMC1-R) (human, UniProt Q01726 1-317); experiment: [125I]-NDP-α-MSH competition, membranes
T1 construct: whole, on cells; membranes of CHO-K1 cells
T1 sequence (Q01726 whole entry): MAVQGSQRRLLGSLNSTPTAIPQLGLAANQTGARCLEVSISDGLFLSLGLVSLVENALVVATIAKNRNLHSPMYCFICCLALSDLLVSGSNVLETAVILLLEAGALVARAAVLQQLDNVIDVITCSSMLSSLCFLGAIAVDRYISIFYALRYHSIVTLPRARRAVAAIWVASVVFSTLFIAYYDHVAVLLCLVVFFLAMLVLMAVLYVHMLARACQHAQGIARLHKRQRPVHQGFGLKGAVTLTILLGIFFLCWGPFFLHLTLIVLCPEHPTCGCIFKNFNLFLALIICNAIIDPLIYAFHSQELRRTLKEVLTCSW
Bridge positions count the residues as written; N and C are the ends. Square brackets hold non-standard residues; d marks the D form. Ends that are not written are not given here. 1Nal = N[C@@H](Cc1cccc2ccccc12)C(=O)O; d2Nal = N[C@H](Cc1ccc2ccccc2c1)C(=O)O; Bta = N[C@@H](Cc1csc2ccccc12)C(=O)O; Ac3c = NC1(C(=O)O)CC1; βAla = NCCC(=O)O
READOUT NAME: Ki (nM)

[
  {
    "BINDER": "Ac-CEH[d2Nal]R[1Nal]ACPPKD[βAla]YGRKRRRQRRR-NH2 (disulfide 1-8) [Ac-c(Cys-Glu-His-D-2-Nal-Arg-1-Nal-Ala-Cys)-Pro-Pro-Lys-Asp-β-[…]NH2]",
    "OBSERVED": 1.5
  },
  {
    "BINDER": "GRCEH[dF]RWC-NH2 (disulfide 3-9; also: hydantoin ring from C(O) with Gly1-Arg2) [Hydantoin(C(O)-(Gly-Arg))-c(Cys-Glu-His-D-Phe-Arg-Trp-Cys)-NH2]",
    "OBSERVED": 5.68
  },
  {
    "BINDER": "D[Ac3c][d2Nal]RWK-NH2 (lactam 1-6; also: hydantoin ring: N-terminal N of Asp1 and backbone N of residue 2 bridged by one C(O), bridge at N via C(O), other end not in the chain) [c[Hydantoin(C(O)-(Asp-A3c))-D-2-Nal-Arg-Trp-Lys]-NH2]",
    "OBSERVED": 7570
  },
  {
    "BINDER": "Ac-CEH[d2Nal]R[Bta]ACPPKD[βAla]RRRRRQRRR-NH2 (disulfide 1-8) [Ac-c(Cys-Glu-His-D-2-Nal-Arg-Bal-Ala-Cys)-Pro-Pro-Lys-Asp-β-[…]NH2]",
    "OBSERVED": 3.86
  }
]
